Source of measurements: paper PMC9482650

- measuredOn: T1, SHANK1, Q9Y566
- T1 sequence (Q9Y566 658-767, limits assumed, looked up): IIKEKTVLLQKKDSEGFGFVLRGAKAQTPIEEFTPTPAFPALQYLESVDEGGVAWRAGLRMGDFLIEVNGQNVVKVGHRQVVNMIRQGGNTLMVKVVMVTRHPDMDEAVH
- assayRemarks: holdup assay
- Design: key: below the threshold = too weak to quantify, mostly under pKd 3.1 to 4
- assaySetup: plain residues with an end cap or a label only (N-terminal biotin on a linker: ado-ado)
measurementType: pKd

{"binder": "RSSGGDDFWF [KCNV1, Q6PIU1]", "pKd": "below the threshold"}
{"binder": "DDASLPVSDV [PLEKHA1, Q9HB21]", "pKd": "below the threshold"}
{"binder": "MQHQRTHTRV [ZSCAN30, Q86W11]", "pKd": 4.08}
{"binder": "NISYRRESAI [KCNJ4, P48050]", "pKd": "below the threshold"}
{"binder": "SPDRDRESIV [SCN5A, Q14524]", "pKd": "below the threshold"}
{"binder": "QSYPSKHDYV [CLDN18, P56856]", "pKd": "below the threshold"}
{"binder": "RFQQRMQTHV [KIRREL1, Q96J84]", "pKd": 4.16}
{"binder": "DPAESMESLV [PTPRG, P23470]", "pKd": "below the threshold"}

Please report pKd for every entry that follows.
1. KPGKGSETVV [FZD4, Q9ULV1]
2. TGLWKHETTV [ADGRA3, Q8IWK6]
3. NTANRRTTPV [CACNG2, Q9Y698]
4. DRIQSCLSDA [SBF1, O95248]
5. GIKKITSTAL [RPS6KA3, P51812]
6. EDGESWEYQI [TRPV6, Q9H1D0]

Data returned:
["below the threshold", "below the threshold", "below the threshold", "below the threshold", 5.16, "below the threshold"]

Please report pKd for every entry that follows.
1. QKAPTKEFYA [SDC2, P34741]
2. EPQYQPGENL [SRC, P12931]

Data returned:
[3.53, "below the threshold"]
